Assay: Inhibition of TIE1 (unknown origin) transfected in mouse Ba/F3 cells assessed as reduction in cell viability incubated for 48 hrs by brightglo-luciferase reporter gene assay
Reported IC50 values for a set of compounds

**Q:** Looking for the measured IC50 of COc1ccc(-c2cnn3c(N)c(-c4nccs4)c(OC4CCN(C)CC4)nc23)cc1OC , can you help?
**A:** > 11 µM

**Q:** Looking for the measured IC50 of COC(=O)Nc1ccc(-c2c(OC3CCN(C)CC3)nc3c(-c4ccc(OC)c(OC)c4)cnn3c2N)cc1 , can you help?
**A:** > 10 µM

**Q:** Looking for the measured IC50 of COc1ccc(-c2cnn3c(N)c(-c4ccccc4)c(OC4CCN(C)CC4)nc23)cc1OC , can you help?
**A:** > 11 µM

Hey, just so you know, these numbers are from BindingDB's records for doi:10.1021/acsmedchemlett.0c00015.
